B1: TPR t1 (parent)
chain: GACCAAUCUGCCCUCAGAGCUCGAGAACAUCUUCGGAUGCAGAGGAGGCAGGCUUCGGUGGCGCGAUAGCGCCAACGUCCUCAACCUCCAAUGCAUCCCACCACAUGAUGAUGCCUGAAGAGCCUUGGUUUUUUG

# Variants of: B1
# method: polymerase ribozyme fitness, log enrichment relative to wild type (log ratio); higher = more active; in vitro selection for triplet polymerase activity
Label 1 when polymerase ribozyme fitness (log ratio) >= -3; otherwise 0.

G58A G60C	1
A6G G77U C82A C104U A121U U130A	1
U96A A121G	1
C53U C73G G113C U132C	0
G57U A84C C101G G122A	0
C13U C62U C85A U106A	1
C3U G39C G44A G77U U78A A119G	1
U14G G113U	0
C12U C56A	1
G58C C76G G77U	1
C13G A37G	1
U7A G61C A91C C114A C115G	0
C13G U87C A121C	1
C70G U96A	0
A43U A111G	1
G47U C72A C76A C79A C80G C94G A100C U116G C124U U129A	0
C20U C53U U54A U125G	1
G10C G47U C89U	0
G58A C72G C82A	1
C56U G93A G110C	0
C31U A46U C85U	0
G113A U130C	1
G61A U106C G122A	1
C56A C94U	1
G17C C80G C124A	0
C34A A95U	0
C102A C114U	0
C13U C80U A84C C124U	1
U9C U78C A83U A90G A121G	1
A41G G45U C56G	1
A2G C34U	0
C53A U130A	1
C34U U78C	0
G36U G61C U126C	0
G42U A50C	1
C3U A41C U125A U126C	0
C34G U38A G48A C53U A111U	0
C114G G117U	0
A46U C73G	1
A46G C86G	1
C70A C88A	1
C8A A37C	1
C12A A46U C114U	0
G51U C114U	0
A43U C56G C79G	0
C72U G93U A111G	1
G19U U21G C49A G71A C114A	1
C13G C85G U112A G120C	1
C102U U106C G113A A121C U131G	0
C11G G42U A84U	1
A103U A121G C123U	1
C15U U21C C49G G117A	1
G42A A111U	0
A29C U112A	1
G23U A24C C31G C72U A83C A90U G93A G107U U109A	0
G69A C114A	0
C64A C80G A103C U109G A118U	0
C3A A5G C12A G63U A68G C115G G122A U130G	0
C12G G63U A66G U109A A119U G127U	0
A16G C94A A95U	0
U7C G39A	1
G44C A95U G110A	1
U96G G120U	1
C12A C53U	1
C15U G17C A121C	1
A26U C62U G71C G93A G120U	0
C56G C89A A105G C114U	0
C28A C70G C79G U130C	0
A6C A29U G52U C53U G63U G120A C123U	0
U14A C73A A74C G120A	1
G60A G135C	1
C4A G52A C53A C72U A90U U130C	0
G48U G57U C85A C114G U129A	0
A50C G57U G113U	0
G69U A83U G127A	1
C3U C11U U33A	0
A6G A111U	1
G17A C40U G60A C79G	0
C98A A100U U112A	0
C73A A118G	1
G36A G127C	1
A16U A50G G58A G60A C64U	0
C15A G71A A91G U112A G113C	0
A6G A41C G57U G60A A100U	1
G60A C115U	1
G51U C101U	0
A5U C13A C28U C49U C56U G120C G135U	0
A41G A90G	1
G71A C104A	1
G60U G63U G113U G117U	0
